Sourced from the supplement of paper PMC7411054

# Test system: HepG2-TP53BP1-CLTA
# methodDescription: phenotypically active (imaging signature differs from DMSO and reproducible) at any of 0.3-9 uM (binary (1 = active, 0 = inactive)); higher = active
# runConditions: treatment time: 24 h
Structures can show the parent of a compound that is named as a salt.
Return exactly one item of 1 for active, 0 for inactive

Write down the call the test reported for this compound. Item: `COC[C@H]1OC(=O)c2coc3c2[C@@]1(C)C1=C(C3=O)[C@@H]2CCC(=O)[C@@]2(C)C[C@H]1OC(C)=O` 0

Write down the call the test reported for this compound. Item: `C=C(C)[C@H]1Cc2c(ccc3c2O[C@@H]2COc4cc(OC)c(OC)cc4[C@@H]2C3=O)O1` 1

Write down the call the test reported for this compound. Item: C[C@@H]1O[C@@H](O[C@H]2C[C@@H](O)[C@]3(CO)[C@H]4[C@H](O)C[C@]5(C)[C@@H](C6=CC(=O)OC6)CC[C@]5(O)[C@@H]4CC[C@]3(O)C2)[C@H](O)[C@H](O)[C@H]1O [Strophantine octahydrate] 1

Write down the call the test reported for this compound. Item: `CN1C[C@H](CO)C=C2c3cccc4[nH]cc(c34)C[C@H]21` 0

Write down the call the test reported for this compound. Item: `O=C1C=C2C=C[C@@H]3C[C@@]2(O1)[C@H]1CCCCN31` 0

Write down the call the test reported for this compound. Item: `C/C=C1\C[C@@H](C)[C@](O)(CO)C(=O)OCC2=CCN3CC[C@@H](OC1=O)[C@@H]23` 0

Write down the call the test reported for this compound. Item: COc1ccc2c(c1O)-c1c(OC)c(OC)cc3c1[C@H](C2)N(C)CC3 [Isocorydine (+)] 0

Write down the call the test reported for this compound. Item: `Cc1cc2c(C(C)C)c(O)c(O)c(C=O)c2c(O)c1-c1c(C)cc2c(C(C)C)c(O)c(O)c(C=O)c2c1O` 1

Write down the call the test reported for this compound. Item: CN1[C@@H]2C[C@@H](OC(=O)[C@H](CO)c3ccccc3)C[C@H]1[C@@H]1O[C@@H]12 [Scopolamine hydrobromide] 0

Write down the call the test reported for this compound. Item: C[C@H]1CCC2(NC1)O[C@H]1C[C@H]3[C@@H]4CC[C@H]5C[C@@H](O[C@@H]6O[C@H](CO)[C@H](O[C@@H]7O[C@H](CO)[C@@H](O)[C@H](O[C@@H]8OC[C@@H](O)[C@H](O)[C@H]8O)[C@H]7O[C@@H]7O[C@H](CO)[C@@H](O)[C@H](O)[C@H]7O)[C@H](O)[C@H]6O)CC[C@]5(C)[C@H]4CC[C@]3(C)[C@H]1[C@@H]2C (some centres undefined) 0

Write down the call the test reported for this compound. Item: `CC(C)(C)c1cc(C=C(C#N)C#N)cc(C(C)(C)C)c1O` 1

Write down the call the test reported for this compound. Item: `C[C@@H](N)[C@@H](O)c1ccccc1` 0

Write down the call the test reported for this compound. Item: `CCN1C[C@]2(COC)CC[C@H](OC)[C@]34[C@@H]5C[C@H]6[C@H](OC)[C@@H]5[C@@]5(C[C@@H]6OC)OCO[C@@]5([C@H]13)[C@@H](O)[C@H]24` 0

Write down the call the test reported for this compound. Item: COc1ccc2c(c[n+](C)c3c4cc5c(cc4ccc23)OCO5)c1OC [Chelerythrine chloride] 1
